The measured values listed here are drawn from ChEMBL document CHEMBL1240531.

biological target: Adenosine receptor A1 (Homo sapiens) (UniProt P30542); experiment: Allosteric enhancement of human adenosine A1 receptor expressed in CHO FlpIn cells assessed as potentiation of N(6)-(R-phenylisopropyl)adenosine-induced ERK1/2 phosphorylation at 3 uM relative to N(6)-(R-phenylisopropyl)adenosine; type: cell-based
Sequence (P30542 whole entry): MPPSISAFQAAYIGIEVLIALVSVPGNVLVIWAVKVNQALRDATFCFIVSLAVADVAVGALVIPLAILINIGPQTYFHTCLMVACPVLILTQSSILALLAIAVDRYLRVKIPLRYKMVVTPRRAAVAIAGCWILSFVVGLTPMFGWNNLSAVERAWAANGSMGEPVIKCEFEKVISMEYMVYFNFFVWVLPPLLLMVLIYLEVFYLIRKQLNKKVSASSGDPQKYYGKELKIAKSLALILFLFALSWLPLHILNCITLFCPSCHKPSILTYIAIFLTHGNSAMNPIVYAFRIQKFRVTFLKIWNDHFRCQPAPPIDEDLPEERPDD
ENDPOINT_NAME: Activity

Q: Request the reported Activity associated with Nc1sc(-c2cncnc2)c2c1C(=O)c1ccccc1-2
Result: 19%

Q: Then this compound: Nc1sc(-c2ccc(C(=O)O)cc2)c2c1C(=O)c1ccccc1-2
Result: 19%

Q: Then this compound: Nc1sc(-c2ccccc2)cc1C(=O)c1ccc(Cl)cc1
Result: 46%

Q: Then this compound: CN(C)c1ccc(-c2cc(C(=O)c3ccc(Cl)cc3)c(N)s2)cc1
Result: 56%

Q: Then this compound: Nc1sc2c(c1C(=O)c1ccccc1)-c1cc(C(F)(F)F)ccc1C2
Result: 52%

Q: Then this compound: COc1ccc(-c2cc(C(=O)c3ccccc3)c(N)s2)cc1
Result: 31%

Q: Then this compound: Nc1scc2c1C(=O)c1ccccc1-2
Result: 45%

Q: Then this compound: COc1ccc(-c2sc(N)c3c2-c2ccccc2C3=O)cc1
Result: 37%

Q: Then this compound: COc1ccc(-c2cc(C(=O)c3ccc(Cl)cc3)c(N)s2)cc1
Result: 51%

Q: Then this compound: Nc1sc(-c2ccccc2)c2c1C(=O)c1ccccc1-2
Result: 19%

Q: Then this compound: Nc1sc2c(c1C(=O)c1ccc(Cl)cc1)-c1ccccc1C2
Result: 81%

Q: Then this compound: Nc1sc(-c2cncnc2)cc1C(=O)c1ccccc1
Result: 18%

Q: Then this compound: Nc1sc(-c2ccc(C(=O)O)cc2)cc1C(=O)c1ccc(Cl)cc1
Result: 27%

Q: Then this compound: Nc1sc2c(c1C(=O)c1ccc(Cl)cc1)-c1cccc(C(F)(F)F)c1C2
Result: 65%

Q: Then this compound: Nc1sccc1C(=O)c1ccccc1
Result: 48%

Q: Then this compound: Nc1sc(-c2ccc(C(=O)O)cc2)cc1C(=O)c1ccccc1
Result: 51%

Q: Then this compound: Nc1sccc1C(=O)c1ccc(Cl)cc1
Result: 50%

###

molecular target: Adenosine receptor A1 (Homo sapiens); assay: Allosteric enhancement of human adenosine A1 receptor expressed in CHO FlpIn cells assessed as potentiation of N(6)-(R-phenylisopropyl)adenosine-induced ERK1/2 phosphorylation at 3 uM relative to N(6)-(R-phenylisopropyl)adenosine; format: cell-based
ENDPOINT_NAME: Activity (%)
Respond with the bare value in %.

Q: Any idea what Activity came out for CN(C)c1ccc(-c2sc(N)c3c2-c2ccccc2C3=O)cc1 on Adenosine receptor A1 (Homo sapiens)?
Result: 48

Q: Then this compound: Nc1sc(-c2ccncc2)c2c1C(=O)c1ccccc1-2
Result: 28

Q: Then this compound: Nc1sc2c(c1C(=O)c1ccccc1)-c1ccccc1C2
Result: 23

Q: Then this compound: Nc1sc2c(c1C(=O)c1ccccc1)-c1cccc(C(F)(F)F)c1C2
Result: 56

Q: Then this compound: Nc1sc(-c2cncnc2)cc1C(=O)c1ccc(Cl)cc1
Result: 7

Q: Then this compound: CN(C)c1ccc(-c2cc(C(=O)c3ccccc3)c(N)s2)cc1
Result: 50
